- system: Transforming acidic coiled-coil-containing protein 3 (Homo sapiens)
- experimentalDetails: inhibition of ARNT PAS-B/TACC3 complex formation – biochemical, AlphaScreen, cherry-picked samples, confirmation (AID 651703);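 also: TACC3 partner is the GST-tagged E629A mutant dimer; hits lower the signal meaning they disrupt ARNT binding to TACC3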
- assayConditions: AlphaScreen His-ARNT PAS-B / GST-TACC3 binding, luminescence
Recorded AC50 for the following compounds

compound: Oc1ccc(CNC2CCc3ccccc32)c2cccnc12 (configuration not stated)
AC50: 1.22 µM

compound: CCCOc1ccc(/C=N/Nc2cc(N3CCOCC3)ncn2)c(O)c1
AC50: 8 µM

compound: O=C(CSc1n[nH]c(-c2ccccn2)n1)Nc1ccc(Cl)cc1
AC50: 2.08 µM

compound: Nc1nc(CN2CCCCCC2)nc(Nc2ccccc2)n1
AC50: 59 µM

compound: C[C@H](NC(=O)c1ccco1)C(=O)Nc1nc(-c2ccccn2)cs1
AC50: 8.23 µM

compound: CN1CCc2c(sc3c2C(=O)NC(c2ccccn2)N3)C1 (configuration not stated)
AC50: 5.51 µM

compound: C[C@@H](Nc1nc(-c2ccccn2)nnc1-c1ccccc1)C1CCCCC1
AC50: 2.26 µM

compound: NNc1nnc(-c2ccccc2)c(-c2ccccc2)n1
AC50: 8.66 µM

compound: OCCN(Cc1cccnc1)Cc1ccccn1
AC50: 2.28 µM

compound: O=c1oc2c3c4c(cc2s1)CCCN4CCC3
AC50: 26.1 µM

compound: N[C@H]1CC[C@H](CCn2cc(-c3ccccn3)nn2)O[C@@H]1CO
AC50: 1.03 µM

compound: CS(=O)(=O)c1ccccc1-c1nnc(NC(=O)c2ccc3ncsc3c2)o1
AC50: 25.4 µM
